tested on: Plasmodium falciparum; experiment: Inhibitory activity against chloroquine-resistant Plasmodium falciparum FcB1R; format: functional, organism-based; details: Plasmodium falciparum
Readout: IC50 (nM)
# value in nM; strip the unit string

A selection of reference data follows.
Smiles structure	Value units	Value observed
CC1CCN(CC(=O)Nc2cc(CO)cc(Nc3ccnc4cc(Cl)ccc34)c2)CC1	nM	77.7
O=C(CN1CCCCC1)Nc1cc(CNC(c2ccccc2)c2ccccc2)cc(Nc2ccnc3cc(Cl)ccc23)c1	nM	9.1
O=C(CN1CCC(O)CC1)Nc1cc(CO)cc(Nc2ccnc3cc(Cl)ccc23)c1	nM	1050

Consider `CC1CCN(CCC(=O)Nc2cc(CO)cc(Nc3ccnc4cc(Cl)ccc34)c2)CC1` . Its measured IC50 is 136
